target: P97 (Homo sapiens (Human), UniProt P55072); assay: P97 Biomolgreen ATPase assay, 200 μM ATP; format: biochemical; conditions: read-out: P97 Biomolgreen, IC50
Sequence (P55072 whole entry): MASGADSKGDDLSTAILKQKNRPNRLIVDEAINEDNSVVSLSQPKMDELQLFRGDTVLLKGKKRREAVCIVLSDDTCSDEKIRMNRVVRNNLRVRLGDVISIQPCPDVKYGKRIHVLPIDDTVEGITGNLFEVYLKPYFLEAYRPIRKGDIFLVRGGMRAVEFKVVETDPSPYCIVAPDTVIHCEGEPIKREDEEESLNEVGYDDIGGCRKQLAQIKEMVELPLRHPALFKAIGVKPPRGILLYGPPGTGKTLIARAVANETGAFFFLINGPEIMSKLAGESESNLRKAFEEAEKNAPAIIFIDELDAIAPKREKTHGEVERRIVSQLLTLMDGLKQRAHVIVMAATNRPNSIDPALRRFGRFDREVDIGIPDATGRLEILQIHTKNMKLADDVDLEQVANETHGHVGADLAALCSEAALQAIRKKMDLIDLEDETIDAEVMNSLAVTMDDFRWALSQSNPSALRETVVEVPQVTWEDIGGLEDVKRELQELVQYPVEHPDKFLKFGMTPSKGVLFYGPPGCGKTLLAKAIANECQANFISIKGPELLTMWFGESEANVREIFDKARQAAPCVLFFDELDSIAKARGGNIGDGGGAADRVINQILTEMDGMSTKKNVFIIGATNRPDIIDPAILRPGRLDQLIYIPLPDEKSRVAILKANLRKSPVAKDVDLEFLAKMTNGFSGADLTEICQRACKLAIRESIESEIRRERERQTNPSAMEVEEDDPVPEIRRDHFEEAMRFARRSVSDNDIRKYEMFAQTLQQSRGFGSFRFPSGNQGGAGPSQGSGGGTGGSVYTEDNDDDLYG
Property: IC50; scope: individual compounds
Could you give me the number in nM? Just the number is fine.

Worked examples follow.
* Cc1cc(OCc2nnc(CC3CCCC3)n2-c2cccnc2)ccc1C#CCOC(=O)NCCN1CCN(C(C)C)CC1 | 120
* Cc1cc(OCc2nnc(SC3C=CCCC3)n2-c2cccnc2)ccc1C#CCOC(=O)NCCN1CCN(C(C)C)CC1 (stereo not shown) [Compound 90] | 84
* C=CC(=O)NCC#Cc1ccc(OCc2nnc(SC3C=CCCC3)n2-c2cccnc2)cc1C (stereo not shown) | 26
* C#Cc1ccc(OCc2nnc(SC3CC3)n2-c2cccnc2)cc1C | 670
* Cc1cc(OCc2nnc(SC3C=CCCC3)n2-c2cccnc2)ccc1C#CCNC(C)C (stereo not shown) | 55
* Cc1cc(OCc2nnc(SC3CCCC3)n2-c2cccnc2)ccc1C#CCOC(=O)NCCNC(=O)CC1[C@H]2CC3C[C@H](C2)C[C@H]1C3 (stereo partly shown) | 60

Let us move to another entry and its IC50.
Quote IC50 with test system P97 (Homo sapiens (Human), UniProt P55072) for Cc1cc(OCc2nnc(SC3CCCC3)n2-c2cccnc2)ccc1C#CCN1CCS(=O)(=O)CC1 180
